Hey, just so you know, these numbers are from the supplement of paper PMC6555819.

# System: RXRa DBDmut IVT, anti-RXR (DBD mutation: RXRa K156A/R161A, NR concentration 90 nM)
# assayNotes: PBM binding z-score (relative to random genomic background probes); higher = stronger binding; sequences stand for … in GC…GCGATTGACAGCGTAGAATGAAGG
PBM binding z-score vs 2: at or above is label 1, below is label 0.

Does the reported PBM binding z-score for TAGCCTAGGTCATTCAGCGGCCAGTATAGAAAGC fall at or above the 2 mark?
label 0

Does the reported PBM binding z-score for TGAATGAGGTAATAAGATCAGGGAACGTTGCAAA fall at or above the 2 mark?
label 0

Does the reported PBM binding z-score for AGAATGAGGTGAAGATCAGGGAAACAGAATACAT fall at or above the 2 mark?
label 0

---
Does the reported PBM binding z-score for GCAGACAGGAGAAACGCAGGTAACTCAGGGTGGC fall at or above the 2 mark?
label 0

Does the reported PBM binding z-score for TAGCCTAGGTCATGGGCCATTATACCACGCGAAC fall at or above the 2 mark?
label 0

Does the reported PBM binding z-score for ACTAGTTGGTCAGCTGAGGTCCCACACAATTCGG fall at or above the 2 mark?
label 0

Does the reported PBM binding z-score for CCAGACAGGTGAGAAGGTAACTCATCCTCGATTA fall at or above the 2 mark?
label 0

Does the reported PBM binding z-score for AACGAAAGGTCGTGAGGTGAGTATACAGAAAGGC fall at or above the 2 mark?
label 0

Does the reported PBM binding z-score for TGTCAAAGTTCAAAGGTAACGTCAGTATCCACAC fall at or above the 2 mark?
label 1

Does the reported PBM binding z-score for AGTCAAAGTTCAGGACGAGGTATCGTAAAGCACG fall at or above the 2 mark?
label 1

Does the reported PBM binding z-score for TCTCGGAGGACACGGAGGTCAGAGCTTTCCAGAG fall at or above the 2 mark?
label 0

Does the reported PBM binding z-score for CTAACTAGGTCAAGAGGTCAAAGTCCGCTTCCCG fall at or above the 2 mark?
label 1
